system: HepG2; test: Cytotoxicity against human HepG2 cells assessed as cell growth inhibition incubated for 68 hrs by MTT assay; format: functional, cell-based; details: HepG2, 68 h
quantityMeasured: IC50

Some solved entries appear below for comparison.
- compound: "C=C1[C@H](O)[C@H]2[C@@H](OC(=O)c3ccccc3)[C@](C)(OC(C)=O)[C@@H](OC(=O)c3ccccc3)[C@]2(O)[C@@H](O)[C@@H](C)/C=C/C(C)(C)[C@H](O)[C@H](OC(C)=O)[C@H]1OC(C)=O"
  system: "HepG2"
  IC50: "> 10 µM"
- compound: "C=C1C(=O)O[C@@H]2C3O[C@]3(C)CC/C=C(\\C)CC[C@@H]12 (stereo not given in full)"
  system: "HepG2"
  IC50: "5.6 µM"

Would you mind listing IC50 for each of the following compounds?
1. C/C=C(/C)C(=O)O[C@@H]1C2[C@@H](OC(=O)c3ccccc3)[C@@H](C)C[C@]2(O)C(=O)[C@@](C)(O)[C@H]2CC(C)(C)C(=O)[C@]2(O)[C@H]2O[C@@]12COC(C)=O (stereo not given in full)
2. CC(=O)OCC(=O)O[C@@H]1[C@H]2[C@@H](OC(=O)c3ccccc3)[C@@H](C)C[C@]2(O)[C@H](O)[C@]2(O)[C@H](OC(C)=O)[C@@]1(OC(C)=O)C[C@H]1C(=O)C(C)(C)C[C@@H]12
3. C/C=C(/C)C(=O)O[C@H]1C(C)=C[C@]23C(=O)[C@@H](C=C(C)[C@@H](O)[C@]12O)[C@H]1[C@@H](C[C@H]3C)C1(C)C

Reply text:
["> 10 µM", "> 10 µM", "> 10 µM"]

----------
tested on: HeLa; assay: Cytotoxicity against human HeLa cells assessed as cell growth inhibition incubated for 68 hrs by MTT assay; type: functional, cell-based
pIC50: −log10 of the molar value.
Exercise: for every item that follows, state its recorded pIC50.

- compound: "C=C1[C@H](O)[C@H]2[C@@H](OC(=O)c3ccccc3)[C@](C)(OC(C)=O)[C@@H](OC(=O)c3ccccc3)[C@]2(O)[C@@H](O)[C@@H](C)/C=C/C(C)(C)[C@H](O)[C@H](OC(C)=O)[C@H]1OC(C)=O"
  pIC50: 5.00
- compound: "C/C=C(/C)C(=O)O[C@@H]1C2[C@@H](OC(=O)c3ccccc3)[C@@H](C)C[C@]2(O)C(=O)[C@@](C)(O)[C@H]2CC(C)(C)C(=O)[C@]2(O)[C@H]2O[C@@]12COC(C)=O (stereo partly drawn)"
  pIC50: "< 5.00"
- compound: "CC(=O)OC[C@@]12Cc3c(ccc(C)c3O)[C@]1(C)[C@@H](OC(C)=O)[C@]1(O)[C@H]([C@@H](OC(=O)c3ccccc3)[C@@H](C)[C@H]1OC(C)=O)[C@H]2OC(C)=O"
  pIC50: "< 5.24"

Batch: pIC50 for all items listed.
1. C=C1C(=O)O[C@@H]2C3O[C@]3(C)CC/C=C(\C)CC[C@@H]12 (stereo partly drawn)
2. CC(=O)OC[C@@]12Cc3c(ccc(C)c3O)[C@]1(C)[C@@H](OC(C)=O)[C@@]1(O)C[C@@](C)(OC(C)=O)[C@H](OC(=O)c3ccccc3)[C@@H]1[C@H]2OC(C)=O
3. CC(=O)OCC(=O)O[C@@H]1[C@H]2[C@@H](OC(=O)c3ccccc3)[C@@H](C)C[C@]2(O)[C@H](O)[C@]2(O)[C@H](OC(C)=O)[C@@]1(OC(C)=O)C[C@H]1C(=O)C(C)(C)C[C@@H]12
4. C/C=C(/C)C(=O)OC[C@@]1(C)[C@H]2[C@@H]3C=C(C)[C@@H](O)[C@]4(O)[C@@H](OC(=O)/C(C)=C\C)C(C)=C[C@@]4(C3=O)[C@H](C)C[C@]21OC(C)=O

Reply text:
5.68
< 5.00
< 5.00
5.01

Inquiry: For C/C=C(/C)C(=O)O[C@H]1C(C)=C[C@]23C(=O)[C@@H](C=C(C)[C@@H](O)[C@]12O)[C@H]1[C@@H](C[C@H]3C)C1(C)C , what is its reported pIC50?
Reply text: < 5.00
